biological target: Estrogen receptor (Homo sapiens, UniProt Q92731+P03372); assay: Inhibition of estrogen receptor positive human breast carcinoma (MCF-7) cell proliferation; format: functional
MEASURED_PARAMETER: IC50 (µM)

c1ccc(C2=C(c3ccc(OCCN4CCCC4)cc3)c3ccccc3OCC2)cc1	6.1
c1ccc(C2=C(c3ccc(OCCN4CCCCC4)cc3)c3ccccc3OCC2)cc1	10.6
Cc1ccc(C2=C(c3ccc(OCCN(C)C)cc3)c3ccccc3OCC2)cc1	15.7

[A] COc1ccc(C2=C(c3ccc(OCCN(C)C)cc3)c3ccccc3OCC2)cc1
[B] CN(C)CCOc1ccc(C2=C(c3ccc(C#N)cc3)CCOc3ccccc32)cc1
Which entry shows the lesser value of IC50 here, A or B ? Write down the label attached to your selection. A

These entries and their values trace back to ChEMBL document CHEMBL1137228.
